Measured on: rat lens aldose reductase (rAR) (Rattus norvegicus)
Construct: The rat lens homogenate was prepared according to the method of Hayman and Kinoshita with some modifications; from tissue; host or cells: lenses of Sprague-Dawley rats (homogenate supernatant)
Assay text: Rat lens aldose reductase (rAR) inhibition, DL-glyceraldehyde substrate, NADPH decrease at 340 nm
Type: biochemical
Condition summary: Table 2; 5 µg/mL
Collected inhibition at 5 µg/mL values appear next to each entry.

Compound | inhibition at 5 µg/mL
O=c1cc(-c2ccc(O)c(O)c2)oc2cc(O)c([C@@H]3O[C@H](CO)[C@@H](O)[C@H](O)[C@H]3O)c(O)c12 [Compound 3, isoorientin] | 77.7%
C[C@@H]1O[C@@H](OC[C@H]2O[C@@H](Oc3cc(O)c4c(=O)cc(-c5ccc(O)c(O)c5)oc4c3)[C@H](O)[C@@H](O)[C@@H]2O)[C@H](O)[C@H](O)[C@H]1O [Compound 7, luteolin-7-O-rutinoside] | 72.7%
O=C(/C=C/c1ccc(O)c(O)c1)O[C@H](Cc1ccc(O)c(O)c1)C(=O)O [Compound 8, rosmarinic acid] | 87.3%
O=c1cc(-c2ccc(O)cc2)oc2cc(O)c([C@@H]3O[C@H](CO)[C@@H](O)[C@H](O)[C@H]3O)c(O)c12 [Compound 5, isovitexin] | 60.3%
O=c1c(O)c(-c2ccc(O)c(O)c2)oc2cc(O)cc(O)c12 [Quercetin, quercetin, reference compound] | 81.1%
O=C(C=Cc1ccc(O)c(O)c1)OC1OC(CO)C(O)C(O)C1O [Compound 10, 1-O-caffeoyl-D-glucoside] | 55.6%
O=c1cc(-c2ccc(O)c(O)c2)oc2c([C@@H]3O[C@H](CO)[C@@H](O)[C@H](O)[C@H]3O)c(O)cc(O)c12 [Compound 2, orientin] | 94%
O=c1cc(-c2ccc(O)c(O)c2)oc2cc(O[C@@H]3O[C@H](CO)[C@@H](O)[C@H](O)[C@H]3O)cc(O)c12 [Compound 6, luteolin-7-O-glucoside] | 61.9%

====

Measured on: rat lens aldose reductase (rAR) (Rattus norvegicus, UniProt P07943)
Construct: The rat lens homogenate was prepared according to the method of Hayman and Kinoshita with some modifications; from tissue; host or cells: lenses of Sprague-Dawley rats (homogenate supernatant)
Assay text: Rat lens aldose reductase (rAR) inhibition, DL-glyceraldehyde substrate, NADPH decrease at 340 nm
Format: biochemical
Condition summary: Table 2 experiment; read-out: IC50 (rAR), isolated constituents (converted)

Molecule | IC50 (nM)
C[C@@H]1O[C@@H](OC[C@H]2O[C@@H](Oc3cc(O)c4c(=O)cc(-c5ccc(O)c(O)c5)oc4c3)[C@H](O)[C@@H](O)[C@@H]2O)[C@H](O)[C@H](O)[C@H]1O [Compound 7, luteolin-7-O-rutinoside] | 2590
O=C(C=Cc1ccc(O)c(O)c1)OC1OC(CO)C(O)C(O)C1O [Compound 10, 1-O-caffeoyl-D-glucoside] | 14100
O=c1cc(-c2ccc(O)c(O)c2)oc2c([C@@H]3O[C@H](CO)[C@@H](O)[C@H](O)[C@H]3O)c(O)cc(O)c12 | 1650
O=c1cc(-c2ccc(O)c(O)c2)oc2cc(O[C@@H]3O[C@H](CO)[C@@H](O)[C@H](O)[C@H]3O)cc(O)c12 [Compound 6, luteolin-7-O-glucoside] | 7470

====

Measured on: rat lens aldose reductase (rAR) (Rattus norvegicus, UniProt P07943)
Construct: The rat lens homogenate was prepared according to the method of Hayman and Kinoshita with some modifications; from tissue; host or cells: lenses of Sprague-Dawley rats (homogenate supernatant)
Assay text: Rat lens aldose reductase (rAR) inhibition, DL-glyceraldehyde substrate, NADPH decrease at 340 nm
Format: biochemical
Condition summary: IC50 (rAR), isolated constituents, Table 2 experiment

Compound | Measured on | IC50, µM
O=c1cc(-c2ccc(O)c(O)c2)oc2cc(O)c([C@@H]3O[C@H](CO)[C@@H](O)[C@H](O)[C@H]3O)c(O)c12 [Compound 3, isoorientin] | rat lens aldose reductase (rAR) (Rattus norvegicus, UniProt P07943) | 1.92
